- Test system: Aspergillus flavus
- assay summary: Antifungal activity against Aspergillus flavus 3372 at 5 mg/mL after 48 hrs
- Assay type: functional
- condition notes: Aspergillus flavus, 3372, 48 h; read-out: DIZ
Provide the recorded zone of inhibition at 5000 µg/mL for the entries that follow.

So what does the record say about zone of inhibition at 5000 µg/mL for `COc1ccc(/C=C2\C(=O)N=C3SC(S(N)(=O)=O)=NN32)cc1OC` ? 7 mm

Same thing, different compound: CCOC(=O)C1C(=O)N=C2SC(S(N)(=O)=O)=NN2C1c1ccc(Cl)cc1 (centres undefined) < 2 mm

Same thing, different compound: `Cc1ccc(/N=N/c2c(N)n3nc(S(N)(=O)=O)sc3nc2=O)cc1` 5 mm

Same thing, different compound: `N#Cc1cnc2sc(S(N)(=O)=O)nn2c1=O` < 2 mm

Same thing, different compound: `OC(Cn1cncn1)(Cn1cncn1)c1ccc(F)cc1F` < 2 mm

Same thing, different compound: `N#Cc1cnc2sc(S(N)(=O)=O)nn2c1=N` < 2 mm

Same thing, different compound: `Nc1c(/N=N/c2ccc(Br)cc2)c(=O)nc2sc(S(N)(=O)=O)nn12` < 2 mm

Same thing, different compound: CN(C)c1ccc(C2C(C#N)C(=O)N=C3SC(S(N)(=O)=O)=NN32)cc1 (centres undefined) < 2 mm

Same thing, different compound: N#CC1C(=O)N=C2SC(S(N)(=O)=O)=NN2C1c1ccc(Cl)cc1 (centres undefined) < 2 mm

Same thing, different compound: CCOC(=O)C1C(=O)N=C2SC(S(N)(=O)=O)=NN2C1c1ccc(OC)c(OC)c1 (centres undefined) < 2 mm

Same thing, different compound: `Nc1c(/N=N/c2ccccc2)c(=O)nc2sc(S(N)(=O)=O)nn12` < 2 mm

Same thing, different compound: `NS(=O)(=O)C1=NN2CCC(=O)N=C2S1` 10 mm

Same thing, different compound: CCOC(=O)C1C(=O)N=C2SC(S(N)(=O)=O)=NN2C1c1ccc(N(C)C)cc1 (centres undefined) < 2 mm

Same thing, different compound: `NS(=O)(=O)C1=NN2C(=NC(=O)/C2=C\c2ccc(Br)cc2)S1` < 2 mm

###

Provide the recorded zone of inhibition at 5000 µg/mL for the entries that follow.
- Tested on: Aspergillus fumigatus
- assay summary: Antifungal activity against Aspergillus fumigatus Af293 at 5 mg/mL after 48 hrs
- Assay type: functional
- condition notes: Af293, 48 h, read-out: DIZ

So what does the record say about zone of inhibition at 5000 µg/mL for CCOC(=O)C1C(=O)N=C2SC(S(N)(=O)=O)=NN2C1c1ccc(Cl)cc1 (stereo not drawn) ? < 2 mm

Same thing, different molecule: CCOC(=O)C1C(=O)N=C2SC(S(N)(=O)=O)=NN2C1c1ccc(OC)c(OC)c1 (stereo not drawn) < 2 mm

Same thing, different molecule: `N#Cc1cnc2sc(S(N)(=O)=O)nn2c1=N` < 2 mm

###

Provide the recorded mortality at 24 h, 10 ug/mL for the entries that follow.
- assay summary: Toxicity against brine shrimp larvae assessed as mortality at 10 ug/mL after 24 hrs by binocular microscopic analysis relative to control
- Type: organism-based
- condition notes: artemia salina, in vivo
Number only, in %; omit the unit.

So what does the record say about mortality at 24 h, 10 ug/mL for CCOC(=O)C1C(=O)N=C2SC(S(N)(=O)=O)=NN2C1c1ccc(OC)c(OC)c1 (centres undefined) ? 50

Same thing, different molecule: `NS(=O)(=O)C1=NN2CCC(=O)N=C2S1` 70

Same thing, different molecule: COc1ccc2c(c1)CCC1=C2N=C2SC(S(N)(=O)=O)=NN2C1c1ccc(OC)c(OC)c1 (centres undefined) 46.6

Same thing, different molecule: `Nc1c(/N=N/c2ccccc2)c(=O)nc2sc(S(N)(=O)=O)nn12` 66.6

Same thing, different molecule: COc1ccc(C2C(C#N)C(=O)N=C3SC(S(N)(=O)=O)=NN32)cc1OC (centres undefined) 36.6

Same thing, different molecule: `Cc1ccc(/N=N/c2c(N)n3nc(S(N)(=O)=O)sc3nc2=O)cc1` 90

Same thing, different molecule: `O=c1[nH]cc(F)c(=O)[nH]1` 63.3

Same thing, different molecule: `COc1ccc(/N=N/c2c(N)n3nc(S(N)(=O)=O)sc3nc2=O)cc1` 73.3

Same thing, different molecule: `COc1ccc(/C=C2\C(=O)N=C3SC(S(N)(=O)=O)=NN32)cc1OC` 63.3

Same thing, different molecule: `N#Cc1cnc2sc(S(N)(=O)=O)nn2c1=O` 50

Same thing, different molecule: COc1ccc2c(c1)CCC1=C2N=C2SC(S(N)(=O)=O)=NN2C1c1ccc(Cl)cc1 (centres undefined) 50

Same thing, different molecule: CN(C)c1ccc(C2C(C#N)C(=O)N=C3SC(S(N)(=O)=O)=NN32)cc1 (centres undefined) 70

Same thing, different molecule: `N#Cc1cnc2sc(S(N)(=O)=O)nn2c1=N` 73.3

Same thing, different molecule: CCOC(=O)C1C(=O)N=C2SC(S(N)(=O)=O)=NN2C1c1ccc(Cl)cc1 (centres undefined) 36.6

###

- Tested on: Escherichia coli
- assay summary: Antibacterial activity against Escherichia coli at 5 mg/mL after 24 hrs
- Format: functional
- condition notes: read-out: DIZ
metric name: zone of inhibition at 5000 µg/mL

So what does the record say about zone of inhibition at 5000 µg/mL for `N#Cc1cnc2sc(S(N)(=O)=O)nn2c1=O` ? 5 mm

Same thing, different molecule: COc1ccc2c(c1)CCC1=C2N=C2SC(S(N)(=O)=O)=NN2C1c1ccc(Cl)cc1 (centres undefined) < 2 mm

Same thing, different molecule: `NS(=O)(=O)C1=NN2CCC(=O)N=C2S1` 11 mm

Same thing, different molecule: CCOC(=O)C1C(=O)N=C2SC(S(N)(=O)=O)=NN2C1c1ccc(Cl)cc1 (centres undefined) < 2 mm

Same thing, different molecule: `Nc1c(/N=N/c2ccc(Br)cc2)c(=O)nc2sc(S(N)(=O)=O)nn12` < 2 mm

Same thing, different molecule: COc1ccc(C2C(C#N)C(=O)N=C3SC(S(N)(=O)=O)=NN32)cc1OC (centres undefined) < 2 mm

Same thing, different molecule: `NS(=O)(=O)C1=NN2CC(=O)N=C2S1` < 2 mm

Same thing, different molecule: `N#Cc1cnc2sc(S(N)(=O)=O)nn2c1=N` < 2 mm

Same thing, different molecule: `Cc1ccc(/N=N/c2c(N)n3nc(S(N)(=O)=O)sc3nc2=O)cc1` 4 mm
